# Test system: NS5A chimeric genotype 2a JFH-1 replicon with genotype 2b MD2b-1 strain NS5A gene (M31 present)
# Experimental Protocol: microbe, parasite or virus in culture
# Type: cell-based, HCV
# Experimental Conditions: Hepatitis C virus, read-out: 2b (t) (nM)
Lab note: anything with EC50 below 0.04 nM is marked Fulfilled; values at 0.04 nM or higher are marked Not fulfilled.

Example entries and their recorded answers appear below.
COC(=O)N[C@H](C(=O)N1[C@@H](C)CC[C@H]1c1ncc(-c2ccc3c(c2)COc2cc4c(ccc5nc([C@@H]6CCCN6C(=O)[C@@H](NC(=O)OC)C6CCOCC6)[nH]c54)cc2-3)[nH]1)C(C)C [Compound 602]; Fulfilled
COC[C@H]1C[C@@H](c2ncc(-c3ccc4c(c3)COc3cc5c(ccc6nc([C@@H]7CCCN7C(=O)[C@@H](NC(=O)OC)C(C)C)[nH]c65)cc3-4)[nH]2)N(C(=O)[C@H](NC(=O)OC)c2ccccc2)C1 [Example MU]; Fulfilled
COC(=O)N[C@H](C(=O)N1C[C@@H](C)C[C@H]1c1nc2ccc3cc4c(cc3c2[nH]1)OCc1cc(-c2cnc([C@@H]3CC[C@H](C)N3C(=O)[C@@H](NC(=O)OC)C(C)C)[nH]2)ccc1-4)C(C)C [Example NC]; Not fulfilled
COC(=O)N[C@H](C(=O)N1[C@H](c2nc3ccc4cc5c(cc4c3[nH]2)OCc2cc(-c3cnc(C4CCCN4C(=O)[C@@H](NC(=O)OC)C4CCOCC4)[nH]3)ccc2-5)C[C@@H]2CCC[C@@H]21)C(C)C (stereo partly drawn) [Example PP]; Fulfilled

Ask | Hello, is EC50 of the following compound strictly smaller than 0.04 nM? COC(=O)N[C@H](C(=O)N1C[C@@H](C)C[C@H]1c1ncc(-c2ccc3c(c2)COc2cc4c(ccc5nc([C@@H]6CC[C@H](C)N6C(=O)[C@@H](NC(=O)OC)C(C)C)[nH]c54)cc2-3)[nH]1)C(C)C [Example QG]
Reply | Not fulfilled

Ask | # TODO verify EC50 < 0.04 nM strictly for this compound: COC(=O)N[C@H](C(=O)N1CCC[C@H]1c1nc2ccc3cc4c(cc3c2[nH]1)OCc1cc(-c2cnc([C@@H]3CCCN3C(=O)[C@H](NC(=O)C3CC3)c3ccccc3)[nH]2)ccc1-4)C(C)C [Compound 498]
Reply | Fulfilled

Ask | Lab note: EC50 threshold 0.04 nM. Does this compound come in strictly under it? CC[C@H](C)[C@H](NC(=O)OC)C(=O)N1C[C@@H](COC)C[C@H]1c1nc2ccc3cc4c(cc3c2[nH]1)OCc1cc(-c2cnc([C@@H]3CC[C@H](C)N3C(=O)[C@@H](NC(=O)OC)C(C)C)[nH]2)ccc1-4 [Example ON]
Reply | Not fulfilled

Ask | # strict comparison: is reported EC50 < 0.04 nM? input = COC(=O)N[C@H](C(=O)N1C[C@@H](C)C[C@H]1c1ncc(-c2ccc3c(c2)COc2cc4c(ccc5nc([C@@H]6C[C@H](C)CN6C(=O)[C@H](NC(=O)OC)c6ccccc6)[nH]c54)cc2-3)[nH]1)C(C)C [Example NF]
Reply | Fulfilled
